// provenance: paper PMC8943622

# TARGET_OF_ASSAY: UniProt H9ESL3
# PROTOCOL: In vivo Scatchard plot analysis of baseline [18F]T-401 PET data
# Parameters: species or system rhesus monkey
# TEST_CONTEXT: HIP
OBSERVATION_TYPE: pKd
# pKd is unitless: minus log10 of the molar concentration; print number only

Measured pKd (UniProt H9ESL3), entry Cc1ccnc([18F])c1-c1cccc(N2C[C@H](N3CCN(C(=O)c4nccs4)CC3)CC2=O)c1 [[^18F]T-401] : 8.96

* * *

# TARGET_OF_ASSAY: MAGL (Macaca mulatta)
# Sequence (H9ESL3 1-303): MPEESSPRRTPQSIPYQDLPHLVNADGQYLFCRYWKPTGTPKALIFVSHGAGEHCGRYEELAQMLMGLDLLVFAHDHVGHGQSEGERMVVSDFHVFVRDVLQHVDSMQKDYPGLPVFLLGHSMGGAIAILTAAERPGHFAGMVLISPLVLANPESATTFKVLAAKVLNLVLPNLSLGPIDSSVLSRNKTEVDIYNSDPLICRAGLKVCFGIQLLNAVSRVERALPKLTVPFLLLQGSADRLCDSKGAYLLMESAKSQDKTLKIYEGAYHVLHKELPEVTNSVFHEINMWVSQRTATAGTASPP
# PROTOCOL: In vivo Scatchard plot analysis of baseline [18F]T-401 PET data
# Parameters: species or system rhesus monkey
# TEST_CONTEXT: FCX
OBSERVATION_TYPE: Kd (nM)
Numeric only. Scale: nM

For reference, reported Kd for Cc1ccnc([18F])c1-c1cccc(N2C[C@H](N3CCN(C(=O)c4nccs4)CC3)CC2=O)c1 [[^18F]T-401] stands at 4.18
